- Tested on: HCI-008 (organoid from a HER2-enriched breast cancer xenograft)
- experimentalDetails: CTG-3D luminescence at 96 h relative to day-0 seeding control (ratio to day 0); higher = more growth / less cytotoxicity; PDxO 3D drug screen (set 2), 96 h, CTG-3D normalised to day-0 seeding control.
- measurementConditions: 0.00025 µM; days in culture: 325
Measured CTG-3D luminescence at 96 h, listed per entry.
// keep it numeric: no unit symbol after the value

Input line: Consider the compound COc1cccc2c1C(=O)c1c(O)c3c(c(O)c1C2=O)C[C@@](O)(C(=O)CO)C[C@@H]3O[C@H]1C[C@H](N)[C@@H](O)[C@H](C)O1 [epirubicin] and give its measured CTG-3D luminescence at 96 h.
Output line: 2.58

====

Measured CTG-3D luminescence at 96 h, listed per entry.
- Tested on: HCI-001 (organoid from a triple-negative breast cancer xenograft)
- experimentalDetails: CTG-3D luminescence at 96 h relative to day-0 seeding control (ratio to day 0); higher = more growth / less cytotoxicity; PDxO 3D drug screen, 96 h, CTG-3D normalised to day-0 seeding control.
- measurementConditions: 625 fM; days in culture: 269
// keep it numeric: no unit symbol after the value

Below, 6 compounds whose answers are already recorded.
[
  {
    "compound": "CCc1c2c(nc3ccc(O)cc13)-c1cc3c(c(=O)n1C2)COC(=O)[C@]3(O)CC",
    "assayEndpoint": "CTG-3D luminescence at 96 h",
    "valueReported": 1.73
  },
  {
    "compound": "CCN(c1cc(C#CCN2CCOCC2)cc(C(=O)NCc2c(C)cc(C)[nH]c2=O)c1C)[C@H]1CC[C@H](N(C)CCOC)CC1",
    "assayEndpoint": "CTG-3D luminescence at 96 h",
    "valueReported": 1.58
  },
  {
    "compound": "COc1cccc2c1C(=O)c1c(O)c3c(c(O)c1C2=O)C[C@@](O)(C(=O)CO)C[C@@H]3O[C@H]1C[C@H](N)[C@H](O)[C@H](C)O1",
    "assayEndpoint": "CTG-3D luminescence at 96 h",
    "valueReported": 1.42
  },
  {
    "compound": "C[C@]12CC[C@@H]3c4ccc(O)cc4C[C@@H](CCCCCCCCC[S+]([O-])CCCC(F)(F)C(F)(F)F)[C@H]3[C@@H]1CC[C@@H]2O (some centres not stated)",
    "assayEndpoint": "CTG-3D luminescence at 96 h",
    "valueReported": 1.43
  },
  {
    "compound": "C=CC(=O)N1CCC[C@@H](n2nc(-c3ccc(Oc4ccccc4)cc3)c3c(N)ncnc32)C1",
    "assayEndpoint": "CTG-3D luminescence at 96 h",
    "valueReported": 1.48
  },
  {
    "compound": "CCN1CCN(Cc2ccc(Nc3ncc(F)c(-c4cc(F)c5nc(C)n(C(C)C)c5c4)n3)nc2)CC1",
    "assayEndpoint": "CTG-3D luminescence at 96 h",
    "valueReported": 1.67
  }
]

Input line: Find the measured CTG-3D luminescence at 96 h: item C[C@@H]1COCCN1c1cc(C2([S@](C)(=N)=O)CC2)nc(-c2cc[nH]c3nccc2-3)n1 , target or system HCI-001.
Output line: 1.54

====

- Test system: HCI-012 (organoid from a breast cancer xenograft)
- experimentalDetails: CTG-3D luminescence at 96 h relative to day-0 seeding control (ratio to day 0); higher = more growth / less cytotoxicity; PDxO 3D drug screen (set 2), 96 h, CTG-3D normalised to day-0 seeding control.
- measurementConditions: 0.005 µM; days in culture: 256
Measured CTG-3D luminescence at 96 h, listed per entry.
// keep it numeric: no unit symbol after the value

[
  {
    "smilesRepr": "CO[C@H]1C[C@@H]2CC[C@@H](C)[C@@](O)(O2)C(=O)C(=O)N2CCCC[C@H]2C(=O)O[C@H]([C@H](C)C[C@@H]2CC[C@@H](OCCO)[C@H](OC)C2)CC(=O)[C@H](C)/C=C(\\C)[C@@H](O)[C@@H](OC)C(=O)[C@H](C)C[C@H](C)/C=C/C=C/C=C/1C",
    "targetOfAssay": "HCI-012",
    "CTG-3D luminescence at 96 h": 1.71
  },
  {
    "smilesRepr": "CC(=O)c1c(C)c2cnc(Nc3ccc(N4CCNCC4)cn3)nc2n(C2CCCC2)c1=O",
    "targetOfAssay": "HCI-012",
    "CTG-3D luminescence at 96 h": 1.63
  },
  {
    "smilesRepr": "Nc1cc(C(F)(F)F)c(-c2cc(N3CCOCC3)nc(N3CCOCC3)n2)cn1",
    "targetOfAssay": "HCI-012",
    "CTG-3D luminescence at 96 h": 2.12
  }
]

# ---- query molecule ----
Input line: Consider the molecule CCOc1ccn(-c2ccc(F)cc2)c(=O)c1C(=O)Nc1ccc(Oc2ccnc(N)c2Cl)c(F)c1 and give its measured CTG-3D luminescence at 96 h.
Output line: 1.8
